Cited source for all entries: patent US20210380703A1

Target: Human Fc (human)
Experiment: ELISA; negative control
As shown below, each of these binders has a reported optical density value.
Just the number plus its unit, please.

Prompt line: Read off the recorded optical density for 365_B11 (antibody, V domains shown) VH: EVQLLESGGGLVQPGGSLRLSCAASGFTFSSYGMHWVRQAPGKGLEWVAGINYNGGYTSYADSVKGRFTISRDNSKNTLYLQMNSLRAEDTAVYYCARSANWHDTALDYWGQGTLVTVSS VL: DIQMTQSPSSLSASVGDRVTITCRASQSIISYLNWYQQKPGKAPKLVIYATTSRHSGVPSRFSGSGSGTDFTLTISSLQPEDFATYYCQQSYDSPLTFGGGTKVEIK
Response line: 0.305 OD

Others:
Prompt line: Read off the recorded optical density for 369_F05 (antibody, V domains shown) VH: EVQLLESGGGLVQPGGSLRLSCAASGFTFSSYSMNWVRQAPGKGLEWVSGINYNGGYKSYADSVKGRFTISRDNSKNTLYLQMNSLRAEDTAVYYCARGATWHDTHLDYWGQGTLVTVSS VL: DIQMTQSPSSLSASVGDRVTITCRASQSISSYLNWYQQKPGKAPKLLIYAASSLQSGVPSRFSGSGSGTDFTLTISSLQPEDFATYYCQQGYDSPLTFGGGTKVEIK
Response line: 0.331 OD

Prompt line: Read off the recorded optical density for 365_G11 (antibody, V domains shown) VH: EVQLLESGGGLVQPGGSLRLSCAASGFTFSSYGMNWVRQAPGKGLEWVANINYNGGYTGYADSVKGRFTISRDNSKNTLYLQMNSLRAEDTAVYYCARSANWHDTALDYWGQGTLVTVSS VL: DIQMTQSPSSLSASVGDRVTITCRASQSIITYVNWYQQKPGKAPKLLIYAVTSRHSGVPSRFSGSGSGTDFTLTISSLQPEDFATYYCQQSYNSPLTFGGGTKVEIK
Response line: 0.278 OD
